Listed here: items and their measured Clarity % T.
Assay: Light transmission at 580 nm (% T)
Assay type: physicochemical
Conditions: 9% REF2 and 1% of the specified ester in 60:40 hydrogenated polydecene:DC245; 580 nm
Your answer is read as %, so omit the unit and give the number.

molecule | unit-string | Clarity % T
CCCCCCCCC(=O)OCC1OC(OC2C(COC(=O)CCCCCCCC)OC(OC(=O)c3ccccc3)C(OC(=O)CCCCCCCC)C2OC(=O)CCCCCCCC)C(OC(=O)CCCCCCCC)C(OC(=O)CCCCCCCC)C1OC(=O)CCCCCCCC (mixture of isomers) [Ex 1.2] | % | 38
CCCCCCCCC(=O)OCC1OC(OC2C(COC(=O)CCCCCCCC)OC(OC(C)=O)C(OC(=O)CCCCCCCC)C2OC(=O)CCCCCCCC)C(OC(=O)CCCCCCCC)C(OC(=O)CCCCCCCC)C1OC(=O)CCCCCCCC (mixture of isomers) [Ex 1.7] | % | 52

Next item in the queue.
Lookup: Find the recorded Clarity % T belonging to CCCCCCCCC(=O)OCC1OC(OC2C(COC(=O)CCCCCCCC)OC(OC(=O)c3ccc4ccccc4c3)C(OC(=O)CCCCCCCC)C2OC(=O)CCCCCCCC)C(OC(=O)CCCCCCCC)C(OC(=O)CCCCCCCC)C1OC(=O)CCCCCCCC (mixture of isomers) [Ex 1.4] and report it.
Found: 38
